system: Escherichia coli; test: In vitro inhibition of Escherichia coli (K12J53) growth.
Each entry below lists one item and its recorded GII50 value.
I only need the number, thanks.

Recorded results for 4 compounds are shown here.
                        input_smiles  meas_value
0             CNS(=O)(=O)c1ccc(N)cc1       60000
1   CN(c1ccccn1)S(=O)(=O)c1ccc(N)cc1       40000
2   CN(c1ncccn1)S(=O)(=O)c1ccc(N)cc1       10000
3  Cn1cccc/c1=N/S(=O)(=O)c1ccc(N)cc1       30000

# lookup: Cc1cc(C)n(C)/c(=N/S(=O)(=O)c2ccc(N)cc2)n1 on Escherichia coli, GII50 = 52000
